Source: PubChem BioAssay (NCI)

- RUN DESCRIPTION: NCI Yeast Anticancer Drug Screen. Data for the cln2 rad14 strain (AID 165);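 note: 0% = growth equal to vehicle treated cultures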
- ASSAY SETUP: S. cerevisiae cln2 rad14 strain, at 5.0 µM (retest, dose inferred, filed as 0.5), active compounds read high
- Protocol: Growth inhibition of yeast strains with defined genetic alterations is measured as a screen for potential anti-cancer activity. Selected strains with alterations in DNA damage repair or cell cycle control were exposed to compounds and growth inhibition was measured relative to vehicle treated controls. The strain used in this assay is cln2 rad14
Compounds without any hit were thinned out: in the full panel of roughly 79,000, 15% have a hit.
Below, each entry is listed with its recorded growth inhibition.
Provide the reading as a plain figure in %.

Worked examples, 3 compounds total:
COMPOUND: CCCCCCCCCCCCCC1OC(=O)C(C)=C1C(=O)O (configuration not stated)
growth inhibition / %: -65
--
COMPOUND: N#COc1ccc(Oc2ccc(OC#N)cc2)cc1
growth inhibition / %: -2
--
COMPOUND: C=Cc1cc(N=Nc2ccc([N+](=O)[O-])cc2)ccc1N(C)C
growth inhibition / %: -2

Lab note: measured growth inhibition of `O=[N+]([O-])c1ccc(Sc2ccc([N+](=O)[O-])o2)o1` was 71

Lab note: measured growth inhibition of `O=c1ccc2nc3ccccc3sc-2c1` was -6

Lab note: measured growth inhibition of CNCC(O)c1cccc(O)c1 (configuration not stated) was 8

Lab note: measured growth inhibition of `Nc1cccc2cccnc12` was 4
